target.under.test: HIV-1 gp41 (HXB2 strain) (HIV-1 HXB2, UniProt P04578 512-856)
test.description: cell-based or functional assay
Bridge positions count the residues as written; N and C are the ends. Square brackets hold non-standard residues; d marks the D form. Ends that are not written are not given here. I, II: the chains in the order shown.
Consider the cut-off 0.4 nM. If the recorded IC50 (HXB2), pseudovirion entry is strictly smaller, the label is Criterion met; if not, the label is Criterion not met.

For C0C(PIE7-GK)3 (disulfide I:3-I:12, II:3-II:12 (inferred); also: trimer: two chain 1 copies joined via C-terminal Lys by zero length spacers to the C-terminal Lys of central chain 2) peptide 1: G[dA][dC][dD][dY][dP][dE][dW][dQ][dW][dL][dC][dA][dA]G[dK] peptide 2: G[dA][dC][dD][dY][dP][dE][dW][dQ][dW][dL][dC][dA][dA]G[dK][dK] , is the recorded IC50 (HXB2), pseudovirion entry below the cut-off of 0.4 nM?
Criterion met

Lab note: confirm whether the reported IC50 (HXB2), pseudovirion entry for this binder is below 0.4 nM, equality not counting. binder: Ac-[dK]G[dA][dC][dD][dY][dP][dE][dW][dQ][dW][dL][dC][dA][dA]-NH2 (disulfide 4-13 (inferred)) [PIE7]
Criterion not met

For this binder, is IC50 (HXB2), pseudovirion entry lower than 0.4 nM? Ac-[dH][dP][dC][dD][dY][dP][dE][dW][dQ][dW][dL][dC][dR][dL]G[dK]-NH2 (disulfide 3-12 (inferred)) [PIE14]
Criterion not met

Consider the binder G[dA][dC][dD][dY][dP][dE][dW][dQ][dW][dL][dC][dA][dA]G[dK] (disulfide 3-12 (inferred); also: dimer joined C- to C-terminus by PEG5 spacer on C-terminal Lys) [C5C(PIE7-GK)2] . Is its IC50 (HXB2), pseudovirion entry strictly less than 0.4 nM?
Criterion met

Here's an entry: G[dA][dC][dD][dY][dP][dE][dW][dQ][dW][dL][dC][dA][dA]G[dK] (disulfide 3-12 (inferred); also: dimer joined C- to C-terminus by PEG9 spacer on C-terminal Lys) [C9C(PIE7-GK)2] . Is its IC50 (HXB2), pseudovirion entry below 0.4 nM?
Criterion met

These entries and their values trace back to patent US20100184663A1.
